# TARGET_UNDER_TEST: HisVAC cephalosporin C acylase (Pseudomonas N176 derived, parent Seq. ID #1) variant A215F
# PROTOCOL_TEXT: Product inhibition of mutant A215F
# Type: biochemical
# CONDITION: substrate Cef C
# Protocol: Kinetics parameters of the mutants and HisVAC acylase were determined measuring the hydrolysis of cephalosporin C or glutaryl 7-ACA in 0.1 M phosphate buffer solution, pH 8.0 at 37° C. (then converted in units at 25° C.). The amount of 7-ACA is determined spectrophotometrically, using a standard curve, measuring the yellow intensity at 415 nm (Schiff base), resulting upon reaction with p-dimethylaminobenzaldehyde, using modified Bulasingham method (Biochem. Biophys. Acta 276, 250, 1972).
OBSERVABLE: pKi
pKi is defined as minus the log10 of a concentration measured in mol/L.

Value wanted: pKi (HisVAC cephalosporin C acylase (Pseudomonas N176 derived, parent Seq. ID #1) variant A215F) of entry `N[C@H](CCCC(=O)O)C(=O)O` 1.07
